Biological target: BTK (Homo sapiens)
Construct: purchased ProQinase
Sequence (Q06187 whole entry): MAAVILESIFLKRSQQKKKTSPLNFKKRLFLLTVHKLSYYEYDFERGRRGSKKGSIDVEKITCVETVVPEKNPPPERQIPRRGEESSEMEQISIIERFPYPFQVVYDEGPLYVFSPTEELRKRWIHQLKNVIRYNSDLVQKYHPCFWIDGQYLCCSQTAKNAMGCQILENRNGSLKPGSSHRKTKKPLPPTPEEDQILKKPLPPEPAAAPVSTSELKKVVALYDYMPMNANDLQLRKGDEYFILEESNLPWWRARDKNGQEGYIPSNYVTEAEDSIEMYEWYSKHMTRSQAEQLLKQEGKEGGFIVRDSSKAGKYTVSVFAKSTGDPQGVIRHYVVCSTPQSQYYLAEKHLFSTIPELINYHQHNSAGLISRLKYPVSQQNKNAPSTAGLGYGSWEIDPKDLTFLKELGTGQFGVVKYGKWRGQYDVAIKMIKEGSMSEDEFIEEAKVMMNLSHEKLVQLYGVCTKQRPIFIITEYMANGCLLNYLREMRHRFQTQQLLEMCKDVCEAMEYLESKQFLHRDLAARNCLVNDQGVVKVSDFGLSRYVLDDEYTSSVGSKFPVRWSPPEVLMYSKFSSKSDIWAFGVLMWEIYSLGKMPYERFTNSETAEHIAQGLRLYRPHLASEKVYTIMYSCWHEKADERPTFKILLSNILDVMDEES
Assay: Recombinant kinase radioassay, BTK
Format: biochemical
Conditions: -log IC50 in molar concentration, Table S3; read-out: Experimental pIC50, CoMFA BTK (converted)
measurement.type: IC50 (nM)

The following compounds have reported results that may help.
Clc1nc(Cl)c2cc[nH]c2n1; 938
Clc1nc(Nc2ccccc2)c2ccn(CC3CC3)c2n1; 1160
O=C(Cl)c1ccc([N+](=O)[O-])cc1; 4120

A: CN1CCN(C(=O)c2ccc(N)cc2)CC1
B: Clc1nc(Cl)c2[nH]cnc2n1
**Q:** Between A and B , which one shows the larger IC50 value? # reply format: chosen label
**A:** B

I: CN1CCN(c2ccc(Nc3nc(Nc4ccccc4)c4ccn(CC5CC5)c4n3)cc2)CC1
II: Clc1nc(Cl)c2ccn(CC3CC3)c2n1
**Q:** Record comparison, field IC50: mark the lower of I and II . Use the label to indicate which entry you chose.
**A:** II

---

Entries below carry reported GI50 on K562.
Lab book: enter the figure in µM, no units written.

CN1CCN(c2ccc(Nc3nc(Nc4ccccc4F)c4ncn(CC5CC5)c4n3)cc2)CC1; 21.3
CN1CCN(C(=O)c2ccc(Nc3nc(Nc4ccc(F)c(F)c4)c4ncn(CC5CC5)c4n3)cc2)CC1; 6.07
CN1CCN(c2ccc(Nc3nc(Nc4ccc(Cl)c(Cl)c4)c4ncn(CC5CC5)c4n3)cc2)CC1; 5.54
CC(C)CCn1cnc2c(Nc3cccc(F)c3)nc(Nc3ccc(N4CCN(C)CC4)cc3)nc21; 18.6

**Q:** What value of GI50 has been recorded for this entry: `CN1CCN(C(=O)c2ccc(Nc3nc(Nc4cccc(F)c4)c4ncn(CC5CC5)c4n3)cc2)CC1`
**A:** 4.91

**Q:** Reported GI50 for `CC(C)CCn1cnc2c(Nc3ccccc3)nc(Nc3ccc(N4CCN(C)CC4)cc3)nc21` : what is it?
**A:** 8.93

**Q:** Look at this compound and give its reported GI50. `CN1CCN(c2ccc(Nc3nc(Nc4ccc(F)c(Cl)c4)c4ncn(CC5CC5)c4n3)cc2)CC1`
**A:** 2.57

**Q:** Need GI50 of `CCCCCCCCn1cnc2c(Nc3cccc(F)c3)nc(Nc3ccc(N4CCN(C)CC4)cc3)nc21` , thanks.
**A:** 10

---

Target: FLT3-ITD (Homo sapiens, UniProt P36888, ITD)
Sequence (P36888 27-993, change not shown): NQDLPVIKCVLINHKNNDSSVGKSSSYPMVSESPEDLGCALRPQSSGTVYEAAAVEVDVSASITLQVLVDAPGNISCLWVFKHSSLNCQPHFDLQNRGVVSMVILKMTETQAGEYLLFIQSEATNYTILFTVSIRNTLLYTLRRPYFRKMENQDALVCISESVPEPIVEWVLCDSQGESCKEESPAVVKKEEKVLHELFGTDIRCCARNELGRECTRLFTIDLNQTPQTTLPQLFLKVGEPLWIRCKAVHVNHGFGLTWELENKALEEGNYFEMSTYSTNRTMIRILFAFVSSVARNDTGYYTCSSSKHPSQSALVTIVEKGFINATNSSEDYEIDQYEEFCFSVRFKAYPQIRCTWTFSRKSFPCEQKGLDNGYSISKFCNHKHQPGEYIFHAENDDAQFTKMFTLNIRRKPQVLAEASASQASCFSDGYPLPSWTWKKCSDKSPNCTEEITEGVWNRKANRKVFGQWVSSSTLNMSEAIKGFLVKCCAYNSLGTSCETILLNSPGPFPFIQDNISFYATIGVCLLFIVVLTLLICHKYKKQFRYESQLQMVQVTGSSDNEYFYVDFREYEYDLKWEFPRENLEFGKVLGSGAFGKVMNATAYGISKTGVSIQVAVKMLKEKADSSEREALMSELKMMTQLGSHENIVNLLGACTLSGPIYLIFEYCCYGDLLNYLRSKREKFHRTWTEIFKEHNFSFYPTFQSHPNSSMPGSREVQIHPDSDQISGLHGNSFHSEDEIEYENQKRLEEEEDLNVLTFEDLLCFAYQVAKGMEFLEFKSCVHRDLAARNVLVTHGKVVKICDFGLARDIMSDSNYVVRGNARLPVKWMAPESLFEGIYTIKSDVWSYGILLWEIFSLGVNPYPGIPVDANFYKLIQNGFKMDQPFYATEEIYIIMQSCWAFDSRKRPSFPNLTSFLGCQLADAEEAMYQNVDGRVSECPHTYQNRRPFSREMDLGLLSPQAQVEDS
Assay: Recombinant kinase radioassay, FLT3-ITD
Type: biochemical
Settings: recombinant kinase, radioassay; at least three independent experiments, range 0.01–100 µM; read-out: IC50 FLT3-ITD
measurement.type: IC50 (µM)

a: CN1CCN(c2ccc(Nc3nc(Nc4ccc([N+](=O)[O-])cc4)c4ncn(CC5CC5)c4n3)cc2)CC1 [Compound 4j]
b: CC(C)CCn1cnc2c(Nc3ccccc3)nc(Nc3ccc(N4CCN(C)CC4)cc3)nc21 [Compound 5a]
c: CCCCCn1cnc2c(Nc3ccc(F)c(F)c3)nc(Nc3ccc(N4CCN(C)CC4)cc3)nc21 [Compound 5f]
**Q:** Task field, ranking: reported IC50, descending order. Provide the ranking by listing each label in its place in the requested order.
**A:** c, a, b

---

This section lists GI50 readings for K562.
Lab book: enter the figure in nM, no units written.

CCOC(=O)c1ccc(Nc2nc(Nc3ccc(N4CCN(C)CC4)cc3)nc3c2ncn3CC2CC2)cc1; 2700
CCCCCCCCn1cnc2c(Nc3ccccc3)nc(Nc3ccc(N4CCN(C)CC4)cc3)nc21; 8190
CN1CCN(c2ccc(Nc3nc(Nc4cccc(Cl)c4)c4ncn(CC5CC5)c4n3)cc2)CC1; 1990
CN1CCN(c2ccc(Nc3nc(Nc4cccc(C#N)c4)c4ncn(CC5CC5)c4n3)cc2)CC1; 3680
CN1CCN(c2ccc(Nc3nc(Nc4ccc(OC(F)(F)F)c([N+](=O)[O-])c4)c4ncn(CC5CC5)c4n3)cc2)CC1; 2600

**Q:** # GI50 lookup, item `CN1CCN(c2ccc(Nc3nc(Nc4ccc(OC(F)(F)F)cc4)c4ncn(CC5CC5)c4n3)cc2)CC1`
**A:** 2900

**Q:** Find the recorded GI50 belonging to `CN1CCN(c2ccc(Nc3nc(Nc4ccc([N+](=O)[O-])cc4)c4ncn(CC5CC5)c4n3)cc2)CC1` and report it.
**A:** 2840

---

// values below are reported melting point

Consider the following illustrative entries.
CN1CCN(c2ccc(Nc3nc(Nc4cccc(Cl)c4)c4ncn(CC5CC5)c4n3)cc2)CC1 [Compound 4b]; 152 to 153 °C
CN1CCN(C(=O)c2ccc(Nc3nc(Nc4ccccc4)c4ncn(CC5CC5)c4n3)cc2)CC1 [Compound 8a]; 164 to 165 °C
CN1CCN(c2ccc(Nc3nc(Nc4ccc(F)c(Cl)c4)c4ncn(CC5CC5)c4n3)cc2)CC1 [Compound 4m]; 153 to 155 °C
CN1CCN(C(=O)c2ccc(Nc3nc(Nc4ccc(F)c(F)c4)c4ncn(CC5CC5)c4n3)cc2)CC1 [Compound 8c]; 142 to 143 °C
CN1CCN(c2ccc(Nc3nc(Nc4ccc(OC(F)(F)F)cc4)c4ncn(CC5CC5)c4n3)cc2)CC1 [Compound 4h]; 161 to 162 °C

**Q:** Query: melting point; subject: CCCCCCCCn1cnc2c(Nc3cccc(F)c3)nc(Nc3ccc(N4CCN(C)CC4)cc3)nc21 [Compound 5k]
**A:** 181.2 to 183.6 °C

**Q:** Look up melting point: Cc1cccc(Nc2nc(Nc3ccc(N4CCN(C)CC4)cc3)nc3c2ncn3CC2CC2)c1 [Compound 4c]
**A:** 135 to 137 °C

**Q:** For the compound CN1CCN(c2ccc(Nc3nc(Nc4ccc([N+](=O)[O-])cc4)c4ncn(CC5CC5)c4n3)cc2)CC1 [Compound 4j] , what melting point is on record?
**A:** 162 to 163 °C

**Q:** Requested read-out: melting point. Entry: CN1CCN(c2ccc(Nc3nc(Nc4ccc(OC(F)(F)F)c([N+](=O)[O-])c4)c4ncn(CC5CC5)c4n3)cc2)CC1 [Compound 4o]
**A:** 144 to 145 °C

**Q:** # lookup: melting point of CN1CCN(C(=O)c2ccc(Nc3nc(Nc4cccc(F)c4)c4ncn(CC5CC5)c4n3)cc2)CC1 [Compound 8b]
**A:** 150 to 151 °C

**Q:** Please look up its melting point: CN1CCN(c2ccc(Nc3nc(Nc4ccccc4)c4ccn(CC5CC5)c4n3)cc2)CC1 [Compound 12]
**A:** 102.3 to 105.5 °C

**Q:** Query (compound): CCCCCCn1cnc2c(Nc3ccccc3)nc(Nc3ccc(N4CCN(C)CC4)cc3)nc21 [Compound 5g] ; field requested: melting point
**A:** 155.8 to 160 °C

**Q:** // query melting point value for entry CN1CCN(c2ccc(Nc3nc(Nc4ccccc4F)c4ncn(CC5CC5)c4n3)cc2)CC1 [Compound 4a]
**A:** 149 to 152 °C

**Q:** melting point for CCCCCCCCn1cnc2c(Nc3ccccc3)nc(Nc3ccc(N4CCN(C)CC4)cc3)nc21 [Compound 5j] ?
**A:** 171.3 to 173.5 °C

**Q:** Any idea what melting point was measured for CC(C)CCn1cnc2c(Nc3ccccc3)nc(Nc3ccc(N4CCN(C)CC4)cc3)nc21 [Compound 5a] ?
**A:** 153.1 to 155.2 °C

**Q:** Returns the measured melting point for the input compound. Input: CCCCCCn1cnc2c(Nc3cccc(F)c3)nc(Nc3ccc(N4CCN(C)CC4)cc3)nc21 [Compound 5h]
**A:** 147.1 to 149.9 °C

**Q:** Can you look up the measured melting point of CCCCCn1cnc2c(Nc3cccc(F)c3)nc(Nc3ccc(N4CCN(C)CC4)cc3)nc21 [Compound 5e] for me?
**A:** 147.1 to 149.3 °C

**Q:** Name the reported melting point value associated with the compound CN1CCN(c2ccc(Nc3nc(Nc4cccc(C(F)(F)F)c4)c4ncn(CC5CC5)c4n3)cc2)CC1 [Compound 4d]
**A:** 134 to 135 °C

**Q:** Look up melting point for this compound: CN1CCN(c2ccc(Nc3nc(Nc4cccc([N+](=O)[O-])c4)c4ncn(CC5CC5)c4n3)cc2)CC1 [Compound 4g]
**A:** 165 to 166 °C

**Q:** Fill blank: measured melting point of the compound CN1CCN(c2ccc(Nc3nc(Nc4cccc(OC(F)(F)F)c4)c4ncn(CC5CC5)c4n3)cc2)CC1 [Compound 4e] is ____.
**A:** 161 to 162 °C

**Q:** Tell me the measured melting point of CCCCCn1cnc2c(Nc3ccccc3)nc(Nc3ccc(N4CCN(C)CC4)cc3)nc21 [Compound 5d] , please.
**A:** 138.5 to 141.3 °C

**Q:** Look up melting point for this compound: CN1CCN(c2ccc(Nc3nc(Nc4ccc(Cl)c(Cl)c4)c4ncn(CC5CC5)c4n3)cc2)CC1 [Compound 4n]
**A:** 132 to 133 °C

**Q:** Given CN1CCN(c2ccc(Nc3nc(Nc4ccc(Cl)c(F)c4)c4ncn(CC5CC5)c4n3)cc2)CC1 [Compound 4l] , state its recorded melting point.
**A:** 149 to 150 °C
